Test system: SK-MEL-5 melanoma
Assay: NCI-60 one-dose screen, 48 h (100 = growth as untreated, 0 = no growth, -100 = all killed)
Settings: 10 µM unless noted
This is part of a sample that, as a whole, favours compounds with a hit. Of some 83,000 tested, about 20% had one in any assay.

| Smiles code | Target system | growth [%] |
| --- | --- | --- |
| CC(C)NCCCCCNc1cc(O)cc2cccnc12 | SK-MEL-5 melanoma | 88.2 |
| CCCc1n(Cc2ccc3ccccc3n2)cc[n+]1Cc1ccc2ccccc2c1 | SK-MEL-5 melanoma | -91.9 |
| Cn1nc(C(F)(F)F)cc1-c1c[nH]c(OCc2ccc(Cl)cc2)c(-c2ccc(Cl)c(C(F)(F)F)c2)c1=O | SK-MEL-5 melanoma | -63.9 |
| N=c1n(Cc2ccccc2)c(N)cc(=O)n1Cc1ccccc1 | SK-MEL-5 melanoma | 2.83 |
| Cc1cc(C)c(C#N)c(SCC(=O)c2sc3c(C#N)c(C)cc(C)[n+]3c2[O-])n1 | SK-MEL-5 melanoma | 10.8 |

====

Test system: NCI-H322M lung
Experiment: NCI-60 one-dose screen, 48 h (100 = growth as untreated, 0 = no growth, -100 = all killed)
Settings: 10 µM unless noted
This is part of a sample that, as a whole, favours compounds with a hit. Of some 83,000 tested, about 20% had one in any assay.
Entries and their growth values follow.
Endpoint: growth (%)

| Compound | Endpoint value |
| --- | --- |
| CCN(CC)C(Cl)=Nc1ccc(Cl)cc1 | 103 |
| NC(=Nc1ccccc1)SCCCSC(N)=Nc1ccccc1 | 81.8 |
| CN1CCN(Cc2ccc(NC(=O)c3cccc(C#Cc4cnc(N)c5ncccc45)c3F)cc2C(F)(F)F)CC1 | 46.7 |
| Clc1cc(Br)ccc1-c1ccc(CNCC2CCNCC2)o1 | 60.2 |
| CCN(C(=O)Nc1cccc2ccccc12)c1ccccc1 | 102 |
| CCCOC(=O)C1c2cc3c(cc2CC(C)C1C(=O)OCCC)OCO3 (stereo not given) | 80.9 |
| COc1c(-c2cc(-c3ccc(C)o3)[nH]c(=O)n2)c(O)cc2occc12 | 90.7 |
| COc1ccc2[nH]c(O)c(/C=c3/ccc4c(c3)N=C(c3ccc(F)cc3)N=4)c2c1 | 49.4 |
| COc1ccc2nc(NC(=O)/C(=C/c3cc(OC)c(OC)c(OC)c3)c3ccc(OC)c(OC)c3)sc2c1 | 82.5 |
| O=C(NNC(=S)Nc1ccccc1)c1ccc(Nc2ncnc3c2cnn3-c2cccc(Br)c2)cc1 | 95.5 |

====

Tested on: MDA-MB-435 melanoma
Assay: NCI-60 one-dose screen, 48 h
Details: 10 µM unless noted
Compounds without any hit were thinned out: in the full panel of roughly 83,000, 20% have a hit. Activity calls are given as the source filed them. How the source made its calls: active means growth percent below 10; inactive means the rest.
Outcome codes: yes (1) = active, no (0) = inactive

| Compound | Target system | Label |
| --- | --- | --- |
| Oc1[nH]c2ccccc2c1/C=c1/ccc2c(c1)N=C(c1ccc(C(F)(F)F)cc1)N=2 | MDA-MB-435 melanoma | no (0) |
| CNCCCNc1ccnc2cc(Cl)ccc12 | MDA-MB-435 melanoma | yes (1) |
| Cn1c(=O)c2c3c(oc2c2ccccc21)C(=O)c1ccccc1C3=O | MDA-MB-435 melanoma | no (0) |
| CCOP(=O)(O)OP(=O)(O)OCC | MDA-MB-435 melanoma | no (0) |
| CCCCn1c(C)nc2ccc(Nc3nc(Cl)nc4nc[nH]c34)cc21 | MDA-MB-435 melanoma | no (0) |
| CC(C)CC(NC(=O)C(CCCN=C(N)N)NC(=O)OCc1ccccc1)C(=O)NC(CNC(=O)/C=C/c1ccccc1)C(C)C (stereo unspecified) | MDA-MB-435 melanoma | no (0) |
| COc1ccc(C(=O)c2cc(C)c(OC)c(C)c2)cc1OC(=O)CCl | MDA-MB-435 melanoma | yes (1) |
| O=C(O)Cn1ccc2ccccc21 | MDA-MB-435 melanoma | no (0) |
| O=C1c2ccccc2C2N1CCC1CCc3ccccc3N12 (stereo unspecified) | MDA-MB-435 melanoma | no (0) |
| CC1CCN(Cc2ccc(NC(=O)c3cc4ccc5cccnc5c4[nH]3)cc2)CC1 | MDA-MB-435 melanoma | yes (1) |
| COc1ccc(/C(=C\c2cc(OC)c(OC)c(OC)c2)C(=O)N2CCNCC2)cc1 | MDA-MB-435 melanoma | no (0) |
